Molecular target: T1, EsCas13d, nuclease-dead (Eubacterium siraeum, UniProt B0MS50, R295A;H300A;R849A;H854A)
T1 sequence: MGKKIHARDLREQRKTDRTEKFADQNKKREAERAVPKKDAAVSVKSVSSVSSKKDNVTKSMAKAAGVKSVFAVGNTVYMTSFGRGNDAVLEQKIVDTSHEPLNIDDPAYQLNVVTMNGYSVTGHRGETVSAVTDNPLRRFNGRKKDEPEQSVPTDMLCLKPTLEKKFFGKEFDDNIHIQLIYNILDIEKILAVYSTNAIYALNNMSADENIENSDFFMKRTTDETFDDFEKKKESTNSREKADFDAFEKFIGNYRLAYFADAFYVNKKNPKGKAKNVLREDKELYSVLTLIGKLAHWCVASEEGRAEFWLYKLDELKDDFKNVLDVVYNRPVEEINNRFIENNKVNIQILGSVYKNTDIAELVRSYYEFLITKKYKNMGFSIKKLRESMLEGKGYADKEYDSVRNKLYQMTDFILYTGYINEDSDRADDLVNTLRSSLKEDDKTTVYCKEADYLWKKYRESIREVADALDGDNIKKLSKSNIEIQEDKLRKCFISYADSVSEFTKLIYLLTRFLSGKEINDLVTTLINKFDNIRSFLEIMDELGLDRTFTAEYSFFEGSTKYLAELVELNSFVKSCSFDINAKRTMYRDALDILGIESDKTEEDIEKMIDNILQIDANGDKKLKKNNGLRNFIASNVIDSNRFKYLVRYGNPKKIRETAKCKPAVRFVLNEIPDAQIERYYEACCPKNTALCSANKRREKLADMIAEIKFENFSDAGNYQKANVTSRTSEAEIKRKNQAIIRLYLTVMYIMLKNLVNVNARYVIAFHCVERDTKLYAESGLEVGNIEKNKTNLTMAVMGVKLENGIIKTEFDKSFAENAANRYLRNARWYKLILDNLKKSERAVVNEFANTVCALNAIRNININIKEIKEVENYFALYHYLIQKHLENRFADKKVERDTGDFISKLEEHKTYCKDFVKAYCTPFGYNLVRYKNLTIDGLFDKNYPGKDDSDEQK
Assay: crRNA (strand 1, pre-loaded); Mg2+; 40 mM Tris-HCl pH 7.5, 150 mM NaCl, 6 mM MgCl2, 1 mM DTT, 0.1% Tween-20, 0.2 mg/ml BSA; 25 C; 10 min per concentration, then washed
Conditions: tags: His6-TwinStrep-SUMO cleaved; N-terminal SNAP kept (SNAP-Surface 488); label: 3' end held by stalled T7 RNA polymerase
pKd: −log10 of the molar value.
Assign Y to entries whose pKd meets or exceeds 8; assign N to the rest.

Problem: Evaluate target 2 MT 5'PFS AUU 3'PFS AUA (mixed) RNA 1: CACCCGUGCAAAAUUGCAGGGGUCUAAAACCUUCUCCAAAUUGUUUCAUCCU RNA 2: GGGAAUGGAUCCACAUCUACGAAUUCAUUAGGAUGAAACAAUUUGGAGAAGAUAAGAUCGGAAGAGCACACGU : pKd at minimum 8?
Solution: Y

Problem: I'd appreciate it if you could say whether target 1 U3A,G13C (mixed) RNA 1: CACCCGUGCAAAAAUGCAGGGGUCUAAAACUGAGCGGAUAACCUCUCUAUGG RNA 2: GGGAAUGGAUCCACAUCUACGAAUUCGUACCAUAGAGACGUUAUCCGCACACCGAGAUCGGAAGAGCACACGU has pKd at least equal to 8.
Solution: N

Problem: Check the entry target 3 U2G,U7G (mixed) RNA 1: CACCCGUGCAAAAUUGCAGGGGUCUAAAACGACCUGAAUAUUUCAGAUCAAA RNA 2: GGGAAUGGAUCCACAUCUACGAAUUCGUUUUUGAUCUGAAAUAUGCAGGGCUGCAGAUCGGAAGAGCACACGU : does pKd equal or exceed 8?
Solution: N

Problem: API: above_or_equal(metric=pKd, cutoff=8) for item target 1 MT 5'PFS GCG 3'PFS AGU (mixed) RNA 1: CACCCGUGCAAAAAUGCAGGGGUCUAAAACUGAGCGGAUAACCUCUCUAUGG RNA 2: GGGAAUGGAUCCACAUCUACGAAUUCGCGCCAUAGAGAGGUUAUCCGCUCAAGUAGAUCGGAAGAGCACACGU
Solution: N

Problem: Reported pKd reaches at least 8 for target 1 del3,del16 (mixed) RNA 1: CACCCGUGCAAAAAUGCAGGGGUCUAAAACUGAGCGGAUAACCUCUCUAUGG RNA 2: GGGAAUGGAUCCACAUCUACGAAUUCGUACCAUAGGAGGUUAUCCGCCACCGAGAUCGGAAGAGCACACGU ?
Solution: N
